Attribute: GI50
# System: NCI-H226 lung
# experimental-details: NCI tumour cell line growth inhibition, 48 h

Solved entries:
compound	GI50
CC(=O)Oc1ccc(OC(C)=O)c2ccccc12	14.4 µM
CC[C@@]1(O)C(=O)NCc2c1cc1n(c2=O)Cc2cc3ccccc3nc2-1	> 100 µM
Cn1nc(C(F)(F)F)c(-c2ccc(Cl)c(C(F)(F)F)c2)c1-c1ccc(OCc2ccc(Cl)cc2)cc1O	1.73 µM
CCCCCCCCCCCCn1c(C)nc2ccccc21	12.7 µM
CCOC(=O)c1sc(-c2ccc(OS(=O)(=O)c3cccs3)c(C=O)c2)nc1C	1.88 µM

Prompt line: Could you tell me which GI50 is on file for COc1ccc2c(c1)CCC1C2CC[C@@]2(C)C1CC[C@@]2(O)CNC(=O)/C=C/c1ccc(O)c(OC)c1 (some centres undefined) ?
Response line: 22.5 µM

Prompt line: Which GI50 value is on record for "CN(C)c1ccc(/C=C2\C[C@H]3[C@@H]4CC=C5C[C@@H](N6CCCC6)CC[C@]5(C)[C@H]4CC[C@]3(C)[C@H]2O)cc1" ?
Response line: 14 µM

Prompt line: Returns the measured GI50 for the input compound. Input: C=C1CCC2C3(C)COC(c4ccc(NC(C)=O)cc4)OC3CCC2(C)C1C/C=C1/C(=O)OCC1O (centres undefined)
Response line: 26.3 µM

Prompt line: Return reported GI50; argument: "O=C(/C=C/c1ccc(C(F)(F)F)cc1)c1ccc(Nc2nc(NCCO)nc(NCCO)n2)cc1"
Response line: 2.62 µM

---

# Tested on: NCI-H460 lung
# experimental-details: NCI tumour cell line growth inhibition, 48 h
Items are presented alongside their recorded TGI.

Prompt line: Query (molecule): O=C(O)C(CCc1ccccn1)c1ccccc1 (stereo not given) ; field requested: TGI
Response line: > 100 µM

Prompt line: Please report the recorded TGI for O=C(CC(O)(C(F)(F)F)C(F)(F)F)C(CCCl)C(O)(C(F)(F)F)C(F)(F)F (stereo not given) .
Response line: 88.6 µM

Prompt line: TGI lookup needed for "Nc1ncnc2c1c(C(F)(F)F)cn2[C@@H]1O[C@H](CO)[C@@H](O)[C@H]1O" , thanks.
Response line: > 43.6 µM

Prompt line: Which value of TGI has been reported for "S=c1nc(-c2nc(=S)[nH]c3c2CCCCCCCCCC3)c2c([nH]1)CCCCCCCCCC2" in the records?
Response line: > 100 µM

Prompt line: Entry "CCCCc1c2c(nc3c1CCc1cc4c(nc1-3)-c1nc3c(c(CCCC)c1CC4)CCC/C3=C\c1ccccc1)/C(=C/c1ccccc1)CCC2" has what TGI?
Response line: > 100 µM

---

# System: SK-MEL-5 melanoma
# experimental-details: NCI tumour cell line growth inhibition, 48 h
molecules and their reported TGI

Answered examples (2):
molecule	measurement-type	measured-result
C/C(O)=C(\C=N\C(N)=S)C(=O)Nc1ccccc1C	TGI	> 100 µM
O=C1C2c3[nH]c4ccccc4c3[C@@H]3CCCCCCCCCCC3C2C(=O)N1c1ccccc1 (stereo partly specified)	TGI	> 100 µM

Consider now this further molecule.
Prompt line: What value of TGI has been recorded for this entry: "O=C1c2ccccc2C(=O)c2c(NCCCNCCO)ccc(NCCCNCCO)c21"
Response line: 28.7 µM

---

# Tested on: NCI-H460 lung
# experimental-details: NCI tumour cell line growth inhibition, 48 h
measurement-type: GI50

molecule	measured-result
CC1(C)CCC[C@]23C(=O)O[C@](O)(C(=O)C4=C[C@@](C)(/C=C/CCCc5ccc6ccc7cccc8ccc5c6c78)CC[C@@]42O)[C@@H]13	180 nM
COc1ccc(SC2c3cc(OC)c(OC)cc3Oc3nc(N)c(C#N)c(N)c32)cc1 (centres undefined)	1660 nM
COc1ccc(/C(C)=C(\c2ccc(Cl)cc2)c2ccc(OCCN3CCCC3)cc2)cc1	3360 nM

Prompt line: Param readout= GI50; system= NCI-H460 lung; entry= "CCOC(=O)c1sc(-c2ccc(OS(=O)(=O)c3cccs3)c(C=O)c2)nc1C" ; returns value.
Response line: 2220 nM

Prompt line: Observed GI50 on NCI-H460 lung for "COc1ccc(-c2ccc3c(NC(=O)C4CC4)n[nH]c3n2)cc1" , please.
Response line: > 25000 nM

Prompt line: Test system NCI-H460 lung; read-out GI50; what value for "O=C1c2ccccc2C(=O)c2c1ccc(C(Br)Br)c2[N+](=O)[O-]" ?
Response line: 1890 nM

Prompt line: Enter reported GI50 observed with NCI-H460 lung for "N#Cc1c(NC(=O)c2ccccc2)sc2c1CCC(=O)C2"
Response line: 2220 nM

Prompt line: Identify the measured GI50 of "COc1ccc(OC)c(-c2nc3sccn3c2/C=C2/C(=O)Nc3ccc(Cl)cc32)c1" for NCI-H460 lung.
Response line: 26000 nM

Prompt line: Record "COc1ccc(-c2nn(-c3cccc(Cl)c3)cc2C=C(C#N)C#N)cc1" : what is its GI50 with NCI-H460 lung?
Response line: 2050 nM

---

# Test system: HT29 colon
# experimental-details: NCI tumour cell line growth inhibition, 48 h
Reported TGI by item:

Prompt line: What value of TGI has been recorded for this entry: "CCN(CC)CCN1C(=O)c2c(c(C)c3c(oc4cc(O)ccc43)c2C)C1=O"
Response line: 5.41 µM

---

# System: NCI-H522 lung
# experimental-details: NCI tumour cell line growth inhibition, 48 h
Some compounds, each annotated with its measured TGI.

sample-smiles	TGI
Cn1cnc([N+](=O)[O-])c1Sc1ccccn1	> 100 µM
Nc1ncnc2c1c(C(F)(F)F)cn2[C@@H]1O[C@H](CO)[C@@H](O)[C@H]1O	3.15 µM
Nc1ccc2c(c1)C(=O)c1ccccc1-2	> 100 µM
COC(=O)c1ccc(-c2nc(C#N)c(N)o2)cc1	> 100 µM

Next:
Prompt line: I'd like to know its TGI. The compound in question is "Cc1ccc2nc3c(C)c(Cl)c(=O)cc-3sc2c1"
Response line: > 56.1 µM

---

Each entry below lists one item and its recorded GI50 value.
# Tested on: 786-0 renal
# experimental-details: NCI tumour cell line growth inhibition, 48 h

Below: 5 compounds and their reported GI50.
compound	target-or-system	measurement-type	measured-result
CCSc1oc(-c2ccccc2)nc1[P+](c1ccccc1)(c1ccccc1)c1ccccc1	786-0 renal	GI50	0.376 µM
COc1ccc(-c2nn(-c3cccc(Cl)c3)cc2C=C(C#N)C#N)cc1	786-0 renal	GI50	2.25 µM
CN(C)CCCNc1nn2c(=O)c3ccccc3nc2c2ccccc12	786-0 renal	GI50	10.9 µM
C=CN1C(=O)OC(c2ccccc2)C1c1ccccc1 (stereo not given)	786-0 renal	GI50	> 100 µM
COc1ccc(/C=C/c2c(C(=O)/C=C/c3ccc(Cl)cc3)c(C)nc3ccccc23)cc1	786-0 renal	GI50	1.82 µM

Prompt line: Field request: GI50 | item: "CCN1CCN(c2nc(NNC(=O)Cc3ccccc3)nc(N3CCN(C(c4ccccc4)c4ccccc4)CC3)n2)CC1"
Response line: 1.74 µM

Prompt line: Report GI50 for "COc1ccc(-c2ccc(/C=C/C(=O)NO)cc2)cc1" please.
Response line: 0.99 µM

Prompt line: Consider the compound "O=C(NCc1cccnc1)/C(=C\c1ccc(Br)cc1)S(=O)(=O)c1ccccc1" and give its measured GI50.
Response line: 1.15 µM

Prompt line: Name the recorded GI50 for "O=C(c1ccccc1Nc1ccnc(C(F)(F)F)c1)N1CCN(c2cccc(Cl)c2)CC1" .
Response line: 23.2 µM

Prompt line: Any idea what GI50 was measured for "Cn1nc(C(F)(F)F)c(-c2ccc(Cl)c(C(F)(F)F)c2)c1-c1ccc(OCc2ccc(Cl)cc2)cc1O" ?
Response line: 1.8 µM

---

This listing pairs compounds with measured GI50.
# Test system: EKVX NSCLC
# experimental-details: NCI tumour cell line growth inhibition, 48 h

Take a look at these entries with their results.
compound	GI50
CC[C@@]1(O)C(=O)NCc2c1cc1n(c2=O)Cc2cc3ccccc3nc2-1	> 47.9 µM
C#CCN1C(=O)/C(=c2\sc3n(c2=O)C2C(NN=3)N(CC)C(=O)N2CC)c2ccccc21 (centres undefined)	1.8 µM
COC(=O)C[CH](C(=O)OC)[Ge]([CH3])([CH3])[S]c1ccccc1 (centres undefined)	16.1 µM

Now for a further compound.
Prompt line: Look up GI50 with EKVX NSCLC for this compound: "COc1cc(-c2cc(-c3ccc(N(C)C)cc3)nc(N3CCOCC3)c2C#N)cc(OC)c1OC"
Response line: 0.988 µM

---

# Test system: MCF7 breast
# experimental-details: NCI tumour cell line growth inhibition, 48 h; in the data active = GI50 below about 0.43 µM; inactive = the rest
Hello, when you answer, please use one of the following outcomes: active, inactive

Sample answers from the record:
molecule	assigned-category
CN1/C(=C\C(I)C(I)C2=[N+](C)c3ccccc3C2(C)C)C(C)(C)c2ccccc21 (configuration not stated)	inactive
COc1ccc(-c2oc(=O)ccc2C#Cc2cc(OC)c(OC)c(OC)c2)cc1O	inactive
CC[C@@]1(O)C(=O)NCc2c1cc1n(c2=O)Cc2cc3ccccc3nc2-1	inactive
COc1ccc(C(=O)c2cc(OC)c(OC)c(OC)c2)cc1OC(C)=O	active
C/C1=C\[C@H](C)C[C@H](C)OC(=O)C[C@H](c2ccc(O)cc2)NC(=O)[C@@H](Cc2c(Br)[nH]c3ccccc23)N(C)C(=O)[C@H](C)NC(=O)[C@@H](C)C1	active

Prompt line: // outcome(item) with item = COc1cc(C)c(C(=O)O[C@H]2[C@H](O[C@H]3[C@@H](O)COC(O[C@H]4C[C@H]5[C@@H]6CC=C7C[C@@H](O)CC[C@]7(C)[C@H]6CC[C@]5(C)[C@H]4[C@H](C)C(=O)CCC(C)C)[C@@H]3OC(C)=O)OC[C@@H](O)[C@@H]2O)c(C)c1 (some centres not stated)
Response line: active

Prompt line: Tell me the assay call for "O=C(NCc1cccnc1)/C(=C\c1ccc(Br)cc1)S(=O)(=O)c1ccccc1" please.
Response line: active
